- Tested on: récepteurs surrénaliens de l'angiotensine Il
- Run Description: Displacement of [125I]-SIAII radioligand from adrenal angiotensin II receptors (rat adrenal homogenate)
- Type: binding
- Reported Conditions: competitor 1E-7M, 60 min at 25°C, 0.1 µM
Test Readout: % de déplacement du ligand marqué (%)
The response must be a number in % with no trailing unit.

For this compound ( CCCCc1c(Cc2ccc(-c3ccccc3-c3nnn[nH]3)cc2)c(O)nc2nc(C)nn12 ), measured % de déplacement du ligand marqué is 11

Record summary for CCCc1c(Cc2ccc(-c3sccc3-c3nnn[nH]3)cc2)c(O)nc2ncnn12 : reported % de déplacement du ligand marqué = 26

Continuing:
% de déplacement du ligand marqué measured on CCCc1nc2ncnn2c(O)c1Cc1ccc(-c2ccccc2-c2nnn[nH]2)cc1 = 52

Note to self: % de déplacement du ligand marqué recorded for CCCc1nc2nncn2c(O)c1Cc1ccc(-c2ccccc2-c2nnn[nH]2)cc1 was 47

Documented % de déplacement du ligand marqué of CCCc1c(Cc2ccc(-c3ccccc3-c3nnn[nH]3)cc2)c(O)nc2ncnn12 : 52

The compound listed as CCCc1c(Cc2ccc(-c3ccccc3-c3nnn[nH]3)cc2)c(N)nc2ncnn12 has a reported % de déplacement du ligand marqué of 31

The value of % de déplacement du ligand marqué measured for the compound CCCc1c(Cc2ccc(-c3ccccc3-c3nnn[nH]3)cc2)c(O)nc2nc(N)nn12 turned out to be 60

The measured % de déplacement du ligand marqué associated with CCCc1c(Cc2ccc(-c3ccccc3-c3nnn[nH]3)cc2)c(N(CC)CC)nc2ncnn12 reads 28

The reported % de déplacement du ligand marqué of the compound CCCc1nc2nc(CC)nn2c(O)c1Cc1ccc(-c2ccccc2-c2nnn[nH]2)cc1 was 59

Hey, just so you know, these numbers are from patent EP0628046B1.
